Reference for the values: paper PMC9736855

Listed here: items and their measured ΔTm CDC42BPA.
# Assay target: CDC42BPA (Homo sapiens, UniProt Q5VT25)
# Construct: purchased in-house DSF panel (SGC Frankfurt)
# Sequence (Q5VT25 1-414): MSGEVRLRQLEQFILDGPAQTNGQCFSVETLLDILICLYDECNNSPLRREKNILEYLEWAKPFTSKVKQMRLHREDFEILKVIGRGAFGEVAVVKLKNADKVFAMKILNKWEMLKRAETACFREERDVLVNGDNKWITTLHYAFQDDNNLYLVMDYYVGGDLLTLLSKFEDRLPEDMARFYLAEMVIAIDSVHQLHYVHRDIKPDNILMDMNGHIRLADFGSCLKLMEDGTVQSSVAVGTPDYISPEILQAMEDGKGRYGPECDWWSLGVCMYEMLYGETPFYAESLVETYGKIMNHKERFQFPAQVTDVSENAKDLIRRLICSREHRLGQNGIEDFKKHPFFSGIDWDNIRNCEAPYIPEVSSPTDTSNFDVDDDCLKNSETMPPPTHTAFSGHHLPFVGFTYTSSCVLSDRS
# Assay procedure: DSF
# Type: binding
Property label: ΔTm CDC42BPA (°C)

INSERT INTO results (molecule, property_label, numeric_value) VALUES
  ('COC(=O)c1cc(Nc2ccnc(NCCOCCNC(=O)OC(C)(C)C)n2)[nH]n1 [21d]', 'ΔTm CDC42BPA', 0.5),
  ('CC(C)(C)OC(=O)Nc1ccc(CNc2nccc(Nc3cc(C(=O)OC(C)(C)C)[nH]n3)n2)cc1 [43d]', 'ΔTm CDC42BPA', -0.8),
  ('CC(C)OC(=O)c1cc(Nc2ccnc(NCc3ccc(NC(=O)OC(C)(C)C)cc3)n2)n[nH]1 [42d]', 'ΔTm CDC42BPA', -0.7),
  ('N#CCc1ccc(Nc2nccc(Nc3cc(C4CC4)[nH]n3)n2)cc1 [compound 1, reference compound]', 'ΔTm CDC42BPA', -0.1),
  ('CN[C@@H]1C[C@H]2O[C@@](C)([C@@H]1OC)n1c3ccccc3c3c4c(c5c6ccccc6n2c5c31)C(=O)NC4 [staurosporine, reference compound]', 'ΔTm CDC42BPA', 2.8),
  ('COC(=O)c1cc(Nc2ccnc(NCc3ccc(NC(=O)OC(C)(C)C)cc3)n2)[nH]n1 [21i]', 'ΔTm CDC42BPA', -0.5);

###

# Assay target: STK17A (Homo sapiens)
# Construct: purchased in-house DSF panel (SGC Frankfurt)
# Sequence (Q9UEE5 61-321): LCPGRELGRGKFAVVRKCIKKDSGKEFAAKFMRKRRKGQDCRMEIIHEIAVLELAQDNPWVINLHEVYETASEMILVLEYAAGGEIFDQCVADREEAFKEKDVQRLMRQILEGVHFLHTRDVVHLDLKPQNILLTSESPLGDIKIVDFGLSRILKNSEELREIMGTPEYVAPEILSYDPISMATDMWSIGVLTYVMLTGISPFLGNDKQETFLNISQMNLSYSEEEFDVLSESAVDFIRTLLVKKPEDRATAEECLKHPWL
# Assay procedure: DSF
# Format: binding
Property label: ΔTm STK17A (°C)

INSERT INTO results (molecule, unit_tag, numeric_value) VALUES
  ('COC(=O)c1cc(Nc2ccnc(NCc3ccc(NC(=O)OC(C)(C)C)cc3)n2)[nH]n1 [21i]', '°C', -0.1),
  ('N#CCc1ccc(Nc2nccc(Nc3cc(C4CC4)[nH]n3)n2)cc1 [compound 1, reference compound]', '°C', 9.6),
  ('CC(C)(C)OC(=O)Nc1ccc(CNc2nccc(Nc3cc(C(=O)OC(C)(C)C)[nH]n3)n2)cc1 [43d]', '°C', -0.6),
  ('COC(=O)c1cc(Nc2ccnc(NCCOCCNC(=O)OC(C)(C)C)n2)[nH]n1 [21d]', '°C', 2.2),
  ('CC(C)OC(=O)c1cc(Nc2ccnc(NCc3ccc(NC(=O)OC(C)(C)C)cc3)n2)n[nH]1 [42d]', '°C', -0.4);

###

# Assay target: CDK18/Cyclin Y (Homo sapiens, UniProt Q07002)
# Sequence (Q07002 whole entry): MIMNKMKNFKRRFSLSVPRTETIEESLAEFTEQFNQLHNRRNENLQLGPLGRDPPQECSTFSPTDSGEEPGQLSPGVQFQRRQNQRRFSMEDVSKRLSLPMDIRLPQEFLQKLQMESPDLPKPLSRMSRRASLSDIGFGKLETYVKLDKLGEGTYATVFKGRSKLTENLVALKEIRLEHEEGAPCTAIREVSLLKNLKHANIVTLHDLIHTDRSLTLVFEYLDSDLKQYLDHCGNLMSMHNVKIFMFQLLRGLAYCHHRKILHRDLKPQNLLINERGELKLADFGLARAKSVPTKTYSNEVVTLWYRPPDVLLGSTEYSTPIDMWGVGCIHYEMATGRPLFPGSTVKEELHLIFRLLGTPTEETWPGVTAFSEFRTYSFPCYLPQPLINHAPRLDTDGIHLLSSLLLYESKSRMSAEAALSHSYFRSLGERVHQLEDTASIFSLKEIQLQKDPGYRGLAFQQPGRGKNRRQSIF
# Sequence (Q8ND76 2-341 partner limits assumed): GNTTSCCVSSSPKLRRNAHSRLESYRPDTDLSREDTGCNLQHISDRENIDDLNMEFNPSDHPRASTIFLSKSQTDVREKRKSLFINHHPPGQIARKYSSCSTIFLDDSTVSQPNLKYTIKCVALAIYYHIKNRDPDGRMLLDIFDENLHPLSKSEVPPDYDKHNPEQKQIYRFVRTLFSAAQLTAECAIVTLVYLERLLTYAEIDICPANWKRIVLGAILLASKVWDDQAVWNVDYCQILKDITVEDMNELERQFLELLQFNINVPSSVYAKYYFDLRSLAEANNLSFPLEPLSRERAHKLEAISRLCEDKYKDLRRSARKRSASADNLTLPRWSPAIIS
# Assay procedure: NanoBRET
# Run conditions: read-out: NanoBRET EC50 ± SEM CDK18/Cyclin Y
Property label: EC50 (nM)

INSERT INTO measurements (compound, property_label, numeric_value) VALUES
  ('CC(C)OC(=O)c1cc(Nc2ccnc(NCc3ccc(NC(=O)OC(C)(C)C)cc3)n2)n[nH]1 [42d]', 'EC50', 128),
  ('COC(=O)c1cc(Nc2ccnc(NCc3ccc(NC(=O)OC(C)(C)C)cc3)n2)[nH]n1 [21i]', 'EC50', 1620),
  ('CC(C)(C)OC(=O)Nc1ccc(CNc2nccc(Nc3cc(C(=O)OC(C)(C)C)[nH]n3)n2)cc1 [43d]', 'EC50', 121),
  ('N#CCc1ccc(Nc2nccc(Nc3cc(C4CC4)[nH]n3)n2)cc1 [compound 1, reference compound]', 'EC50', 25);
